// provenance: the supplement of paper PMC9112550

Below is a list of entries, each paired with its recorded shrunken log2 fold change value.
- Test system: Escherichia coli TOP10
- procedure.summary: shrunken log2 fold change of peptide-encoding DNA abundance (4.5 h post-induction vs induction); higher = less antimicrobial activity (less host growth inhibition)
- condition.summary: time post-induction: 4.5 h; library: site-saturation at positions 5, 18, 19, 20

[
  {
    "macromolecule.sequence": "RRIRLRPPRLPRPRPRPDHYPRP",
    "shrunken log2 fold change": 0.101
  },
  {
    "macromolecule.sequence": "RRIRSRPPRLPRPRPRPSRRPRP",
    "shrunken log2 fold change": 0.208
  },
  {
    "macromolecule.sequence": "RRIRPRPPRLPRPRPRPIVRPRP",
    "shrunken log2 fold change": 0.029
  },
  {
    "macromolecule.sequence": "RRIRERPPRLPRPRPRPDTEPRP",
    "shrunken log2 fold change": -0.0215
  },
  {
    "macromolecule.sequence": "RRIRQRPPRLPRPRPRPNPEPRP",
    "shrunken log2 fold change": 0.0266
  },
  {
    "macromolecule.sequence": "RRIRIRPPRLPRPRPRPSYWPRP",
    "shrunken log2 fold change": -0.781
  },
  {
    "macromolecule.sequence": "RRIRDRPPRLPRPRPRPSTWPRP",
    "shrunken log2 fold change": -0.0672
  },
  {
    "macromolecule.sequence": "RRIRYRPPRLPRPRPRPGGIPRP",
    "shrunken log2 fold change": -0.0836
  },
  {
    "macromolecule.sequence": "RRIRMRPPRLPRPRPRPYVYPRP",
    "shrunken log2 fold change": -0.175
  },
  {
    "macromolecule.sequence": "RRIRSRPPRLPRPRPRPICHPRP",
    "shrunken log2 fold change": -0.179
  },
  {
    "macromolecule.sequence": "RRIRMRPPRLPRPRPRPQMHPRP",
    "shrunken log2 fold change": 0.947
  },
  {
    "macromolecule.sequence": "RRIRQRPPRLPRPRPRPDEHPRP",
    "shrunken log2 fold change": 2.14
  },
  {
    "macromolecule.sequence": "RRIRMRPPRLPRPRPRPDAPPRP",
    "shrunken log2 fold change": 3.16
  },
  {
    "macromolecule.sequence": "RRIRGRPPRLPRPRPRPGGKPRP",
    "shrunken log2 fold change": 0.555
  },
  {
    "macromolecule.sequence": "RRIRYRPPRLPRPRPRPRAVPRP",
    "shrunken log2 fold change": 0.0585
  }
]

---

- Test system: Escherichia coli TOP10;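 also: peptides expressed intracellularly from a pBAD plasmid library in pooled LB shake-flask culture, induced with 0.3% L-arabinose, DNA abundance read by NGS, three biological replicates, DESeq2 with apeglm shrinkage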
- procedure.summary: shrunken log2 fold change of peptide-encoding DNA abundance (4.5 h post-induction vs induction); higher = less antimicrobial activity (less host growth inhibition)
- condition.summary: time post-induction: 4.5 h; library: site-saturation at positions 5, 18, 19, 20
Decide by shrunken log2 fold change: equal to or exceeding -0.02 means Condition met, less means Condition not met.

[
  {
    "macromolecule.sequence": "RRIRARPPRLPRPRPRPMRQPRP",
    "measured.on": "Escherichia coli TOP10",
    "group": "Condition met"
  },
  {
    "macromolecule.sequence": "RRIRSRPPRLPRPRPRPGCEPRP",
    "measured.on": "Escherichia coli TOP10",
    "group": "Condition met"
  },
  {
    "macromolecule.sequence": "RRIRWRPPRLPRPRPRPNNTPRP",
    "measured.on": "Escherichia coli TOP10",
    "group": "Condition not met"
  },
  {
    "macromolecule.sequence": "RRIRCRPPRLPRPRPRPMGIPRP",
    "measured.on": "Escherichia coli TOP10",
    "group": "Condition met"
  },
  {
    "macromolecule.sequence": "RRIRFRPPRLPRPRPRPMIEPRP",
    "measured.on": "Escherichia coli TOP10",
    "group": "Condition met"
  },
  {
    "macromolecule.sequence": "RRIRHRPPRLPRPRPRPLTMPRP",
    "measured.on": "Escherichia coli TOP10",
    "group": "Condition not met"
  },
  {
    "macromolecule.sequence": "RRIRWRPPRLPRPRPRPYWQPRP",
    "measured.on": "Escherichia coli TOP10",
    "group": "Condition not met"
  },
  {
    "macromolecule.sequence": "RRIRYRPPRLPRPRPRPKHLPRP",
    "measured.on": "Escherichia coli TOP10",
    "group": "Condition not met"
  },
  {
    "macromolecule.sequence": "RRIRMRPPRLPRPRPRPGQRPRP",
    "measured.on": "Escherichia coli TOP10",
    "group": "Condition met"
  },
  {
    "macromolecule.sequence": "RRIRPRPPRLPRPRPRPTTLPRP",
    "measured.on": "Escherichia coli TOP10",
    "group": "Condition not met"
  },
  {
    "macromolecule.sequence": "RRIRYRPPRLPRPRPRPYLPPRP",
    "measured.on": "Escherichia coli TOP10",
    "group": "Condition not met"
  },
  {
    "macromolecule.sequence": "RRIRDRPPRLPRPRPRPMTSPRP",
    "measured.on": "Escherichia coli TOP10",
    "group": "Condition not met"
  },
  {
    "macromolecule.sequence": "RRIRKRPPRLPRPRPRPRHWPRP",
    "measured.on": "Escherichia coli TOP10",
    "group": "Condition met"
  },
  {
    "macromolecule.sequence": "RRIRCRPPRLPRPRPRPTCNPRP",
    "measured.on": "Escherichia coli TOP10",
    "group": "Condition not met"
  },
  {
    "macromolecule.sequence": "RRIRWRPPRLPRPRPRPVQHPRP",
    "measured.on": "Escherichia coli TOP10",
    "group": "Condition met"
  },
  {
    "macromolecule.sequence": "RRIRSRPPRLPRPRPRPKIQPRP",
    "measured.on": "Escherichia coli TOP10",
    "group": "Condition not met"
  },
  {
    "macromolecule.sequence": "RRIRTRPPRLPRPRPRPCTSPRP",
    "measured.on": "Escherichia coli TOP10",
    "group": "Condition not met"
  },
  {
    "macromolecule.sequence": "RRIRRRPPRLPRPRPRPLHKPRP",
    "measured.on": "Escherichia coli TOP10",
    "group": "Condition not met"
  },
  {
    "macromolecule.sequence": "RRIRVRPPRLPRPRPRPKMEPRP",
    "measured.on": "Escherichia coli TOP10",
    "group": "Condition not met"
  },
  {
    "macromolecule.sequence": "RRIRVRPPRLPRPRPRPEDPPRP",
    "measured.on": "Escherichia coli TOP10",
    "group": "Condition met"
  },
  {
    "macromolecule.sequence": "RRIRTRPPRLPRPRPRPPNRPRP",
    "measured.on": "Escherichia coli TOP10",
    "group": "Condition met"
  },
  {
    "macromolecule.sequence": "RRIRSRPPRLPRPRPRPHPFPRP",
    "measured.on": "Escherichia coli TOP10",
    "group": "Condition not met"
  },
  {
    "macromolecule.sequence": "RRIRERPPRLPRPRPRPHITPRP",
    "measured.on": "Escherichia coli TOP10",
    "group": "Condition not met"
  },
  {
    "macromolecule.sequence": "RRIRKRPPRLPRPRPRPDCMPRP",
    "measured.on": "Escherichia coli TOP10",
    "group": "Condition met"
  },
  {
    "macromolecule.sequence": "RRIRERPPRLPRPRPRPCPKPRP",
    "measured.on": "Escherichia coli TOP10",
    "group": "Condition not met"
  },
  {
    "macromolecule.sequence": "RRIRTRPPRLPRPRPRPQVFPRP",
    "measured.on": "Escherichia coli TOP10",
    "group": "Condition not met"
  },
  {
    "macromolecule.sequence": "RRIRFRPPRLPRPRPRPEMHPRP",
    "measured.on": "Escherichia coli TOP10",
    "group": "Condition not met"
  },
  {
    "macromolecule.sequence": "RRIRERPPRLPRPRPRPMAEPRP",
    "measured.on": "Escherichia coli TOP10",
    "group": "Condition met"
  },
  {
    "macromolecule.sequence": "RRIRPRPPRLPRPRPRPCPKPRP",
    "measured.on": "Escherichia coli TOP10",
    "group": "Condition not met"
  },
  {
    "macromolecule.sequence": "RRIRVRPPRLPRPRPRPKSVPRP",
    "measured.on": "Escherichia coli TOP10",
    "group": "Condition met"
  },
  {
    "macromolecule.sequence": "RRIRIRPPRLPRPRPRPYIAPRP",
    "measured.on": "Escherichia coli TOP10",
    "group": "Condition not met"
  },
  {
    "macromolecule.sequence": "RRIRVRPPRLPRPRPRPLYVPRP",
    "measured.on": "Escherichia coli TOP10",
    "group": "Condition not met"
  },
  {
    "macromolecule.sequence": "RRIRARPPRLPRPRPRPPHLPRP",
    "measured.on": "Escherichia coli TOP10",
    "group": "Condition met"
  },
  {
    "macromolecule.sequence": "RRIRLRPPRLPRPRPRPLRVPRP",
    "measured.on": "Escherichia coli TOP10",
    "group": "Condition met"
  },
  {
    "macromolecule.sequence": "RRIRSRPPRLPRPRPRPDTAPRP",
    "measured.on": "Escherichia coli TOP10",
    "group": "Condition not met"
  },
  {
    "macromolecule.sequence": "RRIRNRPPRLPRPRPRPIQWPRP",
    "measured.on": "Escherichia coli TOP10",
    "group": "Condition met"
  },
  {
    "macromolecule.sequence": "RRIRGRPPRLPRPRPRPGGRPRP",
    "measured.on": "Escherichia coli TOP10",
    "group": "Condition met"
  },
  {
    "macromolecule.sequence": "RRIRYRPPRLPRPRPRPRFCPRP",
    "measured.on": "Escherichia coli TOP10",
    "group": "Condition not met"
  },
  {
    "macromolecule.sequence": "RRIRIRPPRLPRPRPRPETRPRP",
    "measured.on": "Escherichia coli TOP10",
    "group": "Condition not met"
  },
  {
    "macromolecule.sequence": "RRIRDRPPRLPRPRPRPTGWPRP",
    "measured.on": "Escherichia coli TOP10",
    "group": "Condition met"
  },
  {
    "macromolecule.sequence": "RRIRTRPPRLPRPRPRPPVNPRP",
    "measured.on": "Escherichia coli TOP10",
    "group": "Condition met"
  },
  {
    "macromolecule.sequence": "RRIRHRPPRLPRPRPRPEFAPRP",
    "measured.on": "Escherichia coli TOP10",
    "group": "Condition met"
  },
  {
    "macromolecule.sequence": "RRIRIRPPRLPRPRPRPIAFPRP",
    "measured.on": "Escherichia coli TOP10",
    "group": "Condition not met"
  },
  {
    "macromolecule.sequence": "RRIRPRPPRLPRPRPRPGCHPRP",
    "measured.on": "Escherichia coli TOP10",
    "group": "Condition met"
  },
  {
    "macromolecule.sequence": "RRIRQRPPRLPRPRPRPNYFPRP",
    "measured.on": "Escherichia coli TOP10",
    "group": "Condition not met"
  },
  {
    "macromolecule.sequence": "RRIRTRPPRLPRPRPRPKQDPRP",
    "measured.on": "Escherichia coli TOP10",
    "group": "Condition met"
  },
  {
    "macromolecule.sequence": "RRIRVRPPRLPRPRPRPNKGPRP",
    "measured.on": "Escherichia coli TOP10",
    "group": "Condition not met"
  },
  {
    "macromolecule.sequence": "RRIRPRPPRLPRPRPRPENGPRP",
    "measured.on": "Escherichia coli TOP10",
    "group": "Condition not met"
  },
  {
    "macromolecule.sequence": "RRIRPRPPRLPRPRPRPSWYPRP",
    "measured.on": "Escherichia coli TOP10",
    "group": "Condition not met"
  },
  {
    "macromolecule.sequence": "RRIRRRPPRLPRPRPRPEWQPRP",
    "measured.on": "Escherichia coli TOP10",
    "group": "Condition met"
  },
  {
    "macromolecule.sequence": "RRIRRRPPRLPRPRPRPEYWPRP",
    "measured.on": "Escherichia coli TOP10",
    "group": "Condition met"
  },
  {
    "macromolecule.sequence": "RRIRIRPPRLPRPRPRPHHQPRP",
    "measured.on": "Escherichia coli TOP10",
    "group": "Condition not met"
  },
  {
    "macromolecule.sequence": "RRIRVRPPRLPRPRPRPKDKPRP",
    "measured.on": "Escherichia coli TOP10",
    "group": "Condition not met"
  },
  {
    "macromolecule.sequence": "RRIRKRPPRLPRPRPRPKIVPRP",
    "measured.on": "Escherichia coli TOP10",
    "group": "Condition met"
  },
  {
    "macromolecule.sequence": "RRIRWRPPRLPRPRPRPQVWPRP",
    "measured.on": "Escherichia coli TOP10",
    "group": "Condition met"
  },
  {
    "macromolecule.sequence": "RRIRARPPRLPRPRPRPIVDPRP",
    "measured.on": "Escherichia coli TOP10",
    "group": "Condition met"
  },
  {
    "macromolecule.sequence": "RRIRHRPPRLPRPRPRPWLPPRP",
    "measured.on": "Escherichia coli TOP10",
    "group": "Condition not met"
  },
  {
    "macromolecule.sequence": "RRIRFRPPRLPRPRPRPEKTPRP",
    "measured.on": "Escherichia coli TOP10",
    "group": "Condition met"
  },
  {
    "macromolecule.sequence": "RRIRSRPPRLPRPRPRPSEAPRP",
    "measured.on": "Escherichia coli TOP10",
    "group": "Condition met"
  },
  {
    "macromolecule.sequence": "RRIRHRPPRLPRPRPRPFRCPRP",
    "measured.on": "Escherichia coli TOP10",
    "group": "Condition not met"
  },
  {
    "macromolecule.sequence": "RRIRKRPPRLPRPRPRPTLEPRP",
    "measured.on": "Escherichia coli TOP10",
    "group": "Condition met"
  },
  {
    "macromolecule.sequence": "RRIRERPPRLPRPRPRPGQYPRP",
    "measured.on": "Escherichia coli TOP10",
    "group": "Condition not met"
  },
  {
    "macromolecule.sequence": "RRIRCRPPRLPRPRPRPECSPRP",
    "measured.on": "Escherichia coli TOP10",
    "group": "Condition met"
  }
]
